target entity: human Fibroblast activation protein alpha (hFAP) (Homo sapiens (Human)); also: hFAP 2.4 pM
Sequence (Q12884 38-760): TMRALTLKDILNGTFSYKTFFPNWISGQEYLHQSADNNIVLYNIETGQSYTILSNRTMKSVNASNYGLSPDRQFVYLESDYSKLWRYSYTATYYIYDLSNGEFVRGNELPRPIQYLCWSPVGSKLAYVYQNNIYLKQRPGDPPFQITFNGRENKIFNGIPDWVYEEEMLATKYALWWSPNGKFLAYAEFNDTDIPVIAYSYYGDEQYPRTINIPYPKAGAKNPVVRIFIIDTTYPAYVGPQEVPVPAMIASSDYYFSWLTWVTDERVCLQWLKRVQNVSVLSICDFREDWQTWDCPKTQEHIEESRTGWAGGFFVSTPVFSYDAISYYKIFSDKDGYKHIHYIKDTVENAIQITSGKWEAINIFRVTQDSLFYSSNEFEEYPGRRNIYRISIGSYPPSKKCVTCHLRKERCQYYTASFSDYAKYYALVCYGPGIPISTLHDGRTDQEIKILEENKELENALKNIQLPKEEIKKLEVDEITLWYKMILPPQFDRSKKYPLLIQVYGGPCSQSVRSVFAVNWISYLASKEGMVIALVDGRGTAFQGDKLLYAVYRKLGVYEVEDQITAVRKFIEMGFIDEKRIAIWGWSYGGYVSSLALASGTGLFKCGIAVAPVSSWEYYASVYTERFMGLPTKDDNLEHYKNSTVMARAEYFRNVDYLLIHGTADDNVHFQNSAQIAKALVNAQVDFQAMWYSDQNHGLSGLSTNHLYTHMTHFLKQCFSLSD
quantity kind: pIC50
Scale explanation: pIC50 corresponds to minus log10 of a concentration expressed in moles per litre.

Qu. Form field: reported pIC50 of `N#C[C@@H]1CSCN1C(=O)CNC(=O)c1ccnc2ccc(N3CCOC(F)(F)C3)cc12`
Ans. 10.24

Qu. What do you have for `C[C@H]1COC[C@H](C)N1c1ccc2nccc(C(=O)NCC(=O)N3CSC[C@H]3C#N)c2c1` ?
Ans. 9.96

Qu. Let us now turn to N#C[C@@H]1CSCN1C(=O)CNC(=O)c1ccnc2ccc(N3CCOC[C@@H]3C(F)(F)F)cc12 (single isomer, unassigned) [Example 84]
Ans. 10.13

Qu. Same thing, different compound: `N#C[C@@H]1CSCN1C(=O)CNC(=O)c1ccnc2ccc(N3CC4(CC(F)C4)C3)cc12`
Ans. 10.07

Qu. Again, but for `CC1(CS(C)(=O)=O)CN(c2ccc3nccc(C(=O)NCC(=O)N4CSC[C@H]4C#N)c3c2)C1`
Ans. 9.72

Qu. Please answer likewise for `COC1CN(c2ccc3nccc(C(=O)NCC(=O)N4CSC[C@H]4C#N)c3c2)C1`
Ans. 10.11

Qu. Please do the same for `CC(C)n1nccc1-c1ccc2nccc(C(=O)NCC(=O)N3CSC[C@H]3C#N)c2c1` as well.
Ans. 9.38

Qu. // next record `N#C[C@@H]1CSCN1C(=O)CNC(=O)c1ccnc2ccc(N3CCOCC34CCC4)cc12`
Ans. 10.09
